Below, each entry is listed alongside its reported inhibition of growth at 10 µM.
System: MCF7
Method: Anticancer activity against human MCF7 cells assessed as cell growth inhibition at 10 uM incubated for 48 hrs by SRB assay relative to control
Type: functional
Condition: read-out: GI

The cases that follow already have their inhibition of growth at 10 µM on record.
Cc1ccc(/C=N/Nc2nc(Nc3ccccc3)nc(Nc3ccc(S(N)(=O)=O)cc3)n2)cc1 | 73%
NS(=O)(=O)c1ccc(Nc2nc(N/N=C/c3c[nH]c4ccccc34)nc(Nc3ccccc3)n2)cc1 | 81%
Cc1nn(-c2ccccc2)cc1/C=N/Nc1nc(Nc2ccccc2)nc(Nc2ccc(S(N)(=O)=O)cc2)n1 | 169%

Now for the compound whose inhibition of growth at 10 µM we want.
Could you share which inhibition of growth at 10 µM value was measured for NS(=O)(=O)c1ccc(Nc2nc(N/N=C/C=C/c3ccccc3)nc(Nc3ccccc3)n2)cc1 ?
84%

* * *

Test system: NCI-H226
Method: Anticancer activity against human NCI-H226 cells assessed as cell growth inhibition at 10 uM incubated for 48 hrs by SRB assay relative to control
Assay type: functional
Condition: read-out: GI
inhibition of growth at 10 µM reference

NNc1nc(Nc2ccccc2)nc(Nc2ccc(S(N)(=O)=O)cc2)n1 | < 10%
NS(=O)(=O)c1ccc(Nc2nc(N/N=C/CCc3ccccc3)nc(Nc3ccccc3)n2)cc1 | < 10%

State the recorded inhibition of growth at 10 µM for this entry: CCCCc1nc(/C=N/Nc2nc(Nc3ccccc3)nc(Nc3ccc(S(N)(=O)=O)cc3)n2)c(Cl)[nH]1
< 10%

* * *

Recorded inhibition of growth at 10 µM for the following compounds
Tested on: U-251
Method: Anticancer activity against human U-251 cells assessed as cell growth inhibition at 10 uM incubated for 48 hrs by SRB assay relative to control
Format: functional
Condition: read-out: GI

Previously resolved entries follow.
NNc1nc(Nc2ccccc2)nc(Nc2ccc(S(N)(=O)=O)cc2)n1 | < 10%
NS(=O)(=O)c1ccc(Nc2nc(N/N=C/c3cccs3)nc(Nc3ccccc3)n2)cc1 | < 10%

Continue with the compound presented below.
Endpoint output: inhibition of growth at 10 µM of NS(=O)(=O)c1ccc(Nc2nc(N/N=C/CCc3ccccc3)nc(Nc3ccccc3)n2)cc1 . Value?
< 10%

* * *

Test system: U-251
Method: Anticancer activity against human U-251 cells assessed as cell growth inhibition at 10 uM incubated for 48 hrs by SRB assay relative to control
Type: functional
Condition: read-out: GI
Each entry below lists one item and its recorded inhibition of growth at 10 µM value.

# lookup: inhibition of growth at 10 µM of NS(=O)(=O)c1ccc(Nc2nc(N/N=C/c3cccc4ccccc34)nc(Nc3ccccc3)n2)cc1
33%

Name the recorded inhibition of growth at 10 µM for NS(=O)(=O)c1ccc(Nc2nc(N/N=C/c3ccc([N+](=O)[O-])cc3)nc(Nc3ccccc3)n2)cc1 .
81%

Given the compound NS(=O)(=O)c1ccc(Nc2nc(N/N=C/c3ccc(F)cc3)nc(Nc3ccccc3)n2)cc1 , what is its reported inhibition of growth at 10 µM?
88%

* * *

System: HOP-62
Method: Anticancer activity against human HOP-62 cells assessed as cell growth inhibition at 10 uM incubated for 48 hrs by SRB assay relative to control
Assay type: functional
Condition: read-out: GI
Reported Endpoint: inhibition of growth at 10 µM (%)
Numeric answer only, unit % assumed.

Previously resolved entries follow.
COc1ccc(/C=N/Nc2nc(Nc3ccccc3)nc(Nc3ccc(S(N)(=O)=O)cc3)n2)cc1 | 19
NS(=O)(=O)c1ccc(Nc2nc(N/N=C/c3cccc4ccccc34)nc(Nc3ccccc3)n2)cc1 | 11
NS(=O)(=O)c1ccc(Nc2nc(N/N=C/c3ccc(Cl)cc3)nc(Nc3ccccc3)n2)cc1 | 16
Cc1ccc(/C=N/Nc2nc(Nc3ccccc3)nc(Nc3ccc(S(N)(=O)=O)cc3)n2)cc1 | 13

Which measured inhibition of growth at 10 µM value corresponds to NS(=O)(=O)c1ccc(Nc2nc(N/N=C/c3ccc(C(F)(F)F)cc3)nc(Nc3ccccc3)n2)cc1 ?
61
